Below, each entry is listed with its recorded selective drug sensitivity score.
Tested on: COG-LL-317
Experiment description: selective drug sensitivity score (sDSS, relative to normal bone marrow) (sDSS (score)); higher = more potent and effective on the cell line relative to normal bone marrow cells;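 further: ALL cell lines in 384-well plates, five doses spanning 10,000-fold, each plate scaled between vehicle and 100 µmol/L benzalkonium chloride controls, sDSS an adapted area-under-curve metric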
Conditions used: 72 h
Quick one: just the number, no unit, thanks!

{"columns": ["Compound", "Experimental readout", "Observed value"],
 "data": [
  ["Cc1cccc(CC(=O)N2CCc3c2ccc(-c2cn(C)c4ncnc(N)c24)c3F)n1 (top concentration 2500 nM)", "selective drug sensitivity score", -0.68],
  ["O=C(CCCCCCC(=O)Nc1ccccc1)NO [Vorinostat] (top concentration 10000 nM)", "selective drug sensitivity score", 8.2]
]}

## Task What measured selective drug sensitivity score goes with NC(=O)NO [Hydroxyurea] (top concentration 1000000 nM) ?
## Result 15.4

## Task What measured selective drug sensitivity score goes with O=C(c1ccc(OCCN2CCCCC2)cc1)c1c(-c2ccc(O)cc2)sc2cc(O)ccc12 [Raloxifene] (top concentration 10000 nM) ?
## Result 0.42

## Task What measured selective drug sensitivity score goes with CCCCCOC(=O)Nc1nc(=O)n([C@@H]2O[C@H](C)[C@@H](O)[C@H]2O)cc1F [Capecitabine] (top concentration 10000 nM) ?
## Result -0.06

## Task What measured selective drug sensitivity score goes with Cc1cc([C@@H](C)Nc2ccccc2C(=O)O)c2nc(N3CCOCC3)cc(=O)n2c1 [AZD-6482] (top concentration 2500 nM) ?
## Result -0.18

====

System: MHH-CALL-4
Experiment description: selective drug sensitivity score (sDSS, relative to normal bone marrow) (sDSS (score)); higher = more potent and effective on the cell line relative to normal bone marrow cells
Conditions used: 72 h
Tick Y if selective drug sensitivity score is 2 or greater. Tick N if selective drug sensitivity score is less than 2.

See these solved cases before continuing.
{"columns": ["Compound", "Class label"],
 "data": [
  ["NS(=O)(=O)NCCNc1nonc1/C(=N/O)Nc1ccc(F)c(Br)c1 [Epacadostat] (top concentration 10000 nM)", "Y"],
  ["C[C@@H](C(=O)O)c1ccc(-c2ccccc2)c(F)c1 [Tarenflurbil] (top concentration 10000 nM)", "N"],
  ["CC[C@]1(O)C[C@H]2CN(CCc3c([nH]c4ccccc34)[C@@](C(=O)OC)(c3cc4c(cc3OC)N(C=O)[C@H]3[C@@](O)(C(=O)OC)[C@H](OC(C)=O)[C@]5(CC)C=CCN6CC[C@]43[C@@H]65)C2)C1 [Vincristine] (top concentration 1000 nM)", "N"],
  ["CN1CCN(c2ccc3nc(-c4c(N)c5c(F)cccc5[nH]c4=O)[nH]c3c2)CC1 [Dovitinib] (top concentration 10000 nM)", "N"],
  ["Cc1ccc(NC(=O)c2ccc(CN3CCN(C)CC3)cc2)cc1Nc1nc(-c2cccnc2)cs1 [Masitinib] (top concentration 10000 nM)", "N"],
  ["O=C(/C=C/c1cccnc1)NCCCCC1CCN(C(=O)c2ccccc2)CC1 [Daporinad] (top concentration 1000 nM)", "Y"],
  ["COc1c(OCCCN2CCOCC2)ccc2c1N=C(NC(=O)c1cnc(N)nc1)N1CCN=C21 [Copanlisib] (top concentration 1000 nM)", "Y"],
  ["CN(C)c1cc2c(cc1Sc1nc3c(N)nccc3n1CCNCC(C)(C)C)OCO2 [CUDC-305] (top concentration 10000 nM)", "N"]
]}

## Task In plain terms: is recorded selective drug sensitivity score at least 2 for CC(C)(C)c1cc(NC(=O)Nc2ccc(-c3cn4c(n3)sc3cc(OCCN5CCOCC5)ccc34)cc2)no1 [Quizartinib] (top concentration 1000 nM) ?
## Result N

## Task In plain terms: is recorded selective drug sensitivity score at least 2 for NCCNc1ccc(NCCN)c2c1C(=O)c1ccncc1C2=O [Pixantrone] (top concentration 10000 nM) ?
## Result N

## Task In plain terms: is recorded selective drug sensitivity score at least 2 for Cc1cccc(-c2[nH]c(CNc3ccccc3F)nc2-c2ccc3ncnn3c2)n1 [Vactosertib (TEW-7197)] (top concentration 2500 nM) ?
## Result Y
